Molecular target: T1, in-line fusion protein of human IL-36R extracellular domain and IL1RAcP extracellular domain expressed with … (human; mouse, UniProt Q9HB29 20-337; Q9NPH3 21-359, limits assumed)
T1 construct: not shown: mouse IgG2a Fc
T1 sequence (looked up): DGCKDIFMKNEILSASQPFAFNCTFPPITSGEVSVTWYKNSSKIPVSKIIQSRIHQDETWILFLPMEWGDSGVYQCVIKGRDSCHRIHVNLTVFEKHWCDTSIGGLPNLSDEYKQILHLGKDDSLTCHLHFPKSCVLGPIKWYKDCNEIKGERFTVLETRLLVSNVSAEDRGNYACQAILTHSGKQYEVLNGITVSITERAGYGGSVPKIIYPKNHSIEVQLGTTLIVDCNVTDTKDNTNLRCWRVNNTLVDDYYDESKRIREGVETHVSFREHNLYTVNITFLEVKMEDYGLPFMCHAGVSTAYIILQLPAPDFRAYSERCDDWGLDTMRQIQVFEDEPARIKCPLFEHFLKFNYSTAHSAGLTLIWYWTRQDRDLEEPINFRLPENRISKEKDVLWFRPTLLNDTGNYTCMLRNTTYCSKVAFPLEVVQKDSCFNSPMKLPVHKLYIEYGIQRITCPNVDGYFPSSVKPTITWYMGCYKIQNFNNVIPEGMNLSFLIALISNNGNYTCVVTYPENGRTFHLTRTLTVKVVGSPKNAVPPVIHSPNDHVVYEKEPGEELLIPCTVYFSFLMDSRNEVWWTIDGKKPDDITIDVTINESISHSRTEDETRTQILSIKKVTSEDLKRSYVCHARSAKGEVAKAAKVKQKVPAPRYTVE
Test: SPR Biacore 4000, mAb captured on anti-hFc, 25C
measure: kon

>>> endpoint_value("H4H14708P2 (antibody, human IgG4 S228P, kappa, V domains shown, Fully human anti-IL-36R antibody) VH: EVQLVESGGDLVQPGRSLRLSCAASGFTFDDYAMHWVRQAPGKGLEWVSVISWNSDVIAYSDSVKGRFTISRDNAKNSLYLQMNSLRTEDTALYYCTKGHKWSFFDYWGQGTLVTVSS VL: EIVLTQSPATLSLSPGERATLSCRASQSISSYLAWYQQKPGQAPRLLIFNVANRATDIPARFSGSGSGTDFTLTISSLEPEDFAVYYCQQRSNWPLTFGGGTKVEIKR")
"361000 M⁻¹ s⁻¹"
>>> endpoint_value("H4H14699P2 (antibody, human IgG4 S228P, kappa, V domains shown, Fully human anti-IL-36R antibody) VH: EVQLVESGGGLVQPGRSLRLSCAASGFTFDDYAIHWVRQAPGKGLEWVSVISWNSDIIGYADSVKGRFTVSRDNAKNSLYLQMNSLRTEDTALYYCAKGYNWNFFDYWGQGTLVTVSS VL: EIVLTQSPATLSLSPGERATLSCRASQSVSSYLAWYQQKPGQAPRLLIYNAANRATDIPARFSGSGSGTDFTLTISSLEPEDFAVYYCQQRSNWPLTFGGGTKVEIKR")
"498000 M⁻¹ s⁻¹"
>>> endpoint_value("H4H14706P2 (antibody, human IgG4 S228P, kappa, V domains shown, Fully human anti-IL-36R antibody) VH: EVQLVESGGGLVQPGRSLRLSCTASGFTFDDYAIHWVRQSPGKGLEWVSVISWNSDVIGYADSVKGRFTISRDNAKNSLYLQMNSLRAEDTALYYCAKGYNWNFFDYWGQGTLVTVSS VL: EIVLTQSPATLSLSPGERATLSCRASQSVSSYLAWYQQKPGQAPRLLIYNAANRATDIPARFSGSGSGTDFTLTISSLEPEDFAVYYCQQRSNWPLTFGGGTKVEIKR")
"477000 M⁻¹ s⁻¹"

The reported numbers originate from patent US20200017592A1.
